Biological target: T1, Axl protein (human, UniProt P30530 26-451)
T1 construct: extracellular domain; also called human Axl; hAxl
T1 sequence (looked up): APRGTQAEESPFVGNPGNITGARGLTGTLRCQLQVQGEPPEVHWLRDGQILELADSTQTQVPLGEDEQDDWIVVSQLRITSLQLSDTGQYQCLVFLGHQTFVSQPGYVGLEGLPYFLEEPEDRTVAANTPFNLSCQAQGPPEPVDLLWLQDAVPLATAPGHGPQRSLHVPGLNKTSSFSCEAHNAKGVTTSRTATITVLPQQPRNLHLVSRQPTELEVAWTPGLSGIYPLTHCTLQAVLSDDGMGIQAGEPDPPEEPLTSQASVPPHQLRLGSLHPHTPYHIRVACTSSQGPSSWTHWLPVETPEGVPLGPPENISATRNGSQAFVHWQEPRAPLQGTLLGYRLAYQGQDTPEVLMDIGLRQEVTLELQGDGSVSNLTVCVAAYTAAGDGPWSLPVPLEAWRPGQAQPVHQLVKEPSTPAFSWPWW
Assay: ELISA, 1:3 dilution, pH 6.0 over pH 7.4
metricName: Affinity ELISA CPE mutant ratio (1:3, pH 6.0/7.4) (ratio)

binder	measValue
LC-V029D (antibody, V domains shown) VH: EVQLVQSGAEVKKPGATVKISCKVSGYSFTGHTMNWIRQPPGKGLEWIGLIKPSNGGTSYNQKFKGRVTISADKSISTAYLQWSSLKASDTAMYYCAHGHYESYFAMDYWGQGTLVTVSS VL: DIQMTQSPSSLSASVGDRVTITCKASQDDSSAVAWYQQKPGQAPRLLIYWASTRHTGVPSRFSGSGSGTEFTLTISSLQPDDFATYYCQEHFSTPLTFGQGTKVEIK	2.88
LC-P095A (antibody, V domains shown) VH: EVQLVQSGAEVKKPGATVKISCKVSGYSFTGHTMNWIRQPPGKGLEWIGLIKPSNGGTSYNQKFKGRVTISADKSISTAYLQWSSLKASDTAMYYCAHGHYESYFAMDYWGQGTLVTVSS VL: DIQMTQSPSSLSASVGDRVTITCKASQDVSSAVAWYQQKPGQAPRLLIYWASTRHTGVPSRFSGSGSGTEFTLTISSLQPDDFATYYCQEHFSTALTFGQGTKVEIK	2.52
LC-F092N (antibody, V domains shown) VH: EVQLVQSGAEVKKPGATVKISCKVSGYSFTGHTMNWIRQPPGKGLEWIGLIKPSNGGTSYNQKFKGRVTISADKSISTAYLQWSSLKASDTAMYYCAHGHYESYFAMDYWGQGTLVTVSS VL: DIQMTQSPSSLSASVGDRVTITCKASQDVSSAVAWYQQKPGQAPRLLIYWASTRHTGVPSRFSGSGSGTEFTLTISSLQPDDFATYYCQEHNSTPLTFGQGTKVEIK	1.93
